Target: T1, human galanin receptor 3 (hGalR3) (human, UniProt O60755 1-368)
T1 sequence (looked up): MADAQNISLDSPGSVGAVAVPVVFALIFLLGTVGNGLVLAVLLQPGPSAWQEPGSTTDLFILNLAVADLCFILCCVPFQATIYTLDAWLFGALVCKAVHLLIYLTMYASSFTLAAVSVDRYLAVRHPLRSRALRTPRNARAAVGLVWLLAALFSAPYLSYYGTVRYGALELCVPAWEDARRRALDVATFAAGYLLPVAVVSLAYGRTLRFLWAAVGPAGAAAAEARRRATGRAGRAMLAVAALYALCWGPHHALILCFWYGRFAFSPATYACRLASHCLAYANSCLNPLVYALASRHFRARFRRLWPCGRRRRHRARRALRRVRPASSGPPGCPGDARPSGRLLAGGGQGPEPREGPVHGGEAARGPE
Assay: cell-based or functional assay
Positions of bridges follow the written chain, without caps; N, C: chain ends. No end group written: not given here.
MEASURED QUANTITY: Emax, receptor activation (SRE-Luc assay)

1. GWTLNSAGYLLGPHAVGNHRSFSDKNGLTS-NH2 [human galanin (hGAL)] :: 0.68 relative to hSPX Emax
2. NWTCQAMLYLKGAQ-NH2 [hSPX (C4)] :: 0.91 relative to hSPX Emax
3. GWTLNSAGYLLGPHAV-NH2 [human galanin (1-16), hGAL (1-16)] :: 0.45 relative to hSPX Emax
4. Ac-CWTPQAMLYLKGCQ-NH2 (disulfide 1-13; SMILES CSCC[C@@H]1NC(=O)[C@H](C)NC(=O)[C@H](CCC(N)=O)NC(=O)[C@@H]2CCCN2C(=O)[C@H]([C@@H](C)O)NC(=O)[C@H](Cc2c[nH]c3ccccc23)NC(=O)[C@@H](NC(C)=O)CSSC[C@@H](C(=O)N[C@@H](CCC(N)=O)C(N)=O)NC(=O)CNC(=O)[C@H](CCCCN)NC(=O)[C@H](CC(C)C)NC(=O)[C@H](Cc2ccc(O)cc2)NC(=O)[C@H](CC(C)C)NC1=O) [LH101 (Ac)] :: 1 relative to hSPX Emax
5. CWTPQAMLYLKGCQ-NH2 (disulfide 1-13; N-terminus assumed; SMILES CSCC[C@@H]1NC(=O)[C@H](C)NC(=O)[C@H](CCC(N)=O)NC(=O)[C@@H]2CCCN2C(=O)[C@H]([C@@H](C)O)NC(=O)[C@H](Cc2c[nH]c3ccccc23)NC(=O)[C@@H](N)CSSC[C@@H](C(=O)N[C@@H](CCC(N)=O)C(N)=O)NC(=O)CNC(=O)[C@H](CCCCN)NC(=O)[C@H](CC(C)C)NC(=O)[C@H](Cc2ccc(O)cc2)NC(=O)[C@H](CC(C)C)NC1=O) [LH101] :: 1.04 relative to hSPX Emax
6. NWTCQAMLYLKGCQ-NH2 (disulfide 4-13; N-terminus assumed; SMILES CSCC[C@@H]1NC(=O)[C@H](C)NC(=O)[C@H](CCC(N)=O)NC(=O)[C@@H](NC(=O)[C@@H](NC(=O)[C@H](Cc2c[nH]c3ccccc23)NC(=O)[C@@H](N)CC(N)=O)[C@@H](C)O)CSSC[C@@H](C(=O)N[C@@H](CCC(N)=O)C(N)=O)NC(=O)CNC(=O)[C@H](CCCCN)NC(=O)[C@H](CC(C)C)NC(=O)[C@H](Cc2ccc(O)cc2)NC(=O)[C@H](CC(C)C)NC1=O) [LH102] :: 0.87 relative to hSPX Emax
7. CWTPQAMLYLKGAQ-NH2 [hSPX (C1)] :: 1 relative to hSPX Emax
